- Study Target: T1, Pou4f2, full-length, His-tagged (mouse, UniProt Q63934 1-411)
- T1 construct: Pou4f2 (Brn3b), mouse, full-length coding region in pET-28a(+); 411 a.a; also called Brn3b; source: E. coli, in lysate (pull-down); purified on His SpinTrap columns (EMSA); not shown: His tag, C-terminal, kept
- T1 sequence (looked up): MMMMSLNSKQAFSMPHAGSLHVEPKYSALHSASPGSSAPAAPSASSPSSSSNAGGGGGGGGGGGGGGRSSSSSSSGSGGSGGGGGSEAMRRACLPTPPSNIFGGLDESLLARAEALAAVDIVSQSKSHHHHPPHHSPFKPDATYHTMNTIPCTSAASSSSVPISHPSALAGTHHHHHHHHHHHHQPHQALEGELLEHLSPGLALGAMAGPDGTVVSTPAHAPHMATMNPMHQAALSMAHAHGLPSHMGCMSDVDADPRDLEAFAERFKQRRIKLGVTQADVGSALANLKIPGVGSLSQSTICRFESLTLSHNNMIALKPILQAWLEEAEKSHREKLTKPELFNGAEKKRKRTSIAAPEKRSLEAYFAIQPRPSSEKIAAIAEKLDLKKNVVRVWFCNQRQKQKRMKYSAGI
- Procedure Text: native gel or EMSA; EMSA with purified His-tagged proteins (200 ng each) and radiolabelled DNA probes (SBRN3, CBRN3; Ebf3 and Irx6 for Isl1 with Pou4f2D5); protein-protein complex read from a slower migrating ternary complex on DNA; 20 mM Tris-HCl pH 7.5, 0.05 M NaCl, 10 mM DTT, 1 mM EDTA, 5% glycerol, 4 C
- Particulars: both partners purified
Observed Property: binding result

Isl1, full-length, His-tagged (natural protein, mouse, UniProt P61372 1-349, looked up, Isl1, mouse, full-length coding region in pET-28a(+); 349 a.a; source: E. coli, in lysate (pull-down); purified on His SpinTrap columns (EMSA); not shown: His tag, C-terminal, kept) MGDMGDPPKKKRLISLCVGCGNQIHDQYILRVSPDLEWHAACLKCAECNQYLDESCTCFVRDGKTYCKRDYIRLYGIKCAKCSIGFSKNDFVMRARSKVYHIECFRCVACSRQLIPGDEFALREDGLFCRADHDVVERASLGAGDPLSPLHPARPLQMAAEPISARQPALRPHVHKQPEKTTRVRTVLNEKQLHTLRTCYAANPRPDALMKEQLVEMTGLSPRVIRVWFQNKRCKDKKRSIMMKQLQQQQPNDKTNIQGMTGTPMVAASPERHDGGLQANPVEVQSYQPPWKVLSDFALQSDIDQPAFQQLVNFSEGGPGSNSTGSEVASMSSQLPDTPNSMVASPIEA = binds
